Assay: Solubility test in cosmetic solvents and water
Format: physicochemical
Settings: Water; % m/V; addition of Compound A and B stopped after 50% m/V
Procedure: The solubility of Compounds A to D was tested, wherein the addition of Compound A and B to the respective solvent had been stopped after 50% m/V. In case of Compound C and D, a precipitation after about 1% m/V had been visible. The respective pH-values (see Table 1) had been measured of the final solution or suspension, respectively.
# solubility annotations

Field: example entries. Status: answers known.
1) CC1=C(NCCO)CCC/C1=N\CCO.Cl [Compound B]	>50.0%
2) CC1=C(NCCOCCO)CCC/C1=N\CCOCCO.Cl [Compound A]	>50.0%
3) COc1ccc(/N=C2\CCC(Nc3ccc(OC)cc3)=C2C)cc1.Cc1ccc(S(=O)(=O)O)cc1 [Compound C]	<1.0%

### Prompt Data request, read-out solubility, for CC1=C(Nc2ccccc2Br)CC/C1=N\c1ccccc1Br.Cc1ccc(S(=O)(=O)O)cc1 [Compound D]
### Response <1.0%
